Data provenance is PubChem BioAssay (NCI).

system: NCI-H460 lung; assay: NCI-60 one-dose screen, 48 h (100 = growth as untreated, 0 = no growth, -100 = all killed); conditions: 10 µM
Compounds without any hit were thinned out: in the full panel of roughly 83,000, 20% have a hit. Active and inactive are the calls of the source. The calls were made as follows: active = growth percent below 10; inactive = the rest.
REPORTED ENDPOINT: growth

COMPOUND	TARGET OR SYSTEM	REPORTED ENDPOINT	OBSERVED
Cc1ccc(Cl)cc1NC(=O)N(C)CCO	NCI-H460 lung	growth	108% (inactive)
COc1cc(C(=O)NC(=S)Nc2ccc3ccccc3c2)cc(OC)c1OC	NCI-H460 lung	growth	107% (inactive)
CCCCOC(=O)c1ccc(C(C)C)cc1	NCI-H460 lung	growth	109% (inactive)
CC(=O)OCCC(C)CCC=C(C)C (stereo unspecified)	NCI-H460 lung	growth	104% (inactive)
c1csc(-c2cc(-c3cc(-c4cccs4)[nH]n3)n[nH]2)c1	NCI-H460 lung	growth	107% (inactive)

Provide growth for all items below, preserving their order.
1. CCOC(=O)C1OC1c1ccccc1 (stereo unspecified)
2. O=C(NCO)c1ccccc1
3. OC1CCCc2ccccc21 (stereo unspecified)
4. N#CCCN(CCCN1CCOCC1)CN1C(=O)c2ccccc2C1=O

1: 103% (inactive); 2: 105% (inactive); 3: 101% (inactive); 4: 111% (inactive)

Please report growth for every entry that follows.
1. Cc1nc2c(ccc3ccccc32)s1
2. COC(=O)c1ccc(C(C)C)cc1

1. 115% (inactive)
2. 114% (inactive)
